system: Transient receptor potential cation channel subfamily C member 4 (TRPC4beta), mouse; assay: TRPC4 channel inhibitors, SAR follow-up, cell-based, HEK293 TRPC4beta/mu-opioid, Fluo-4 calcium flux, single concentration (AID 492988); settings: DAMGO-evoked Fluo4 calcium flux, at 10 µM
Inconclusive results are not listed. The source made the active and inactive calls.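 The calls were made as follows: active = duplicate-averaged calcium signal falling below the mean of the agonist-only control wells less 5 SD; inactive = the rest, inconclusive results apart.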
Respond only with the outcome that fits, drawn from active, inactive

Input: Which outcome was assigned to "Cc1cc(N2CCNCC2)nc2ccccc12" in this test?
Output: inactive

Input: Which outcome was assigned to "COc1ccccc1N1CCN(c2cc(C)c3ccccc3n2)CC1" in this test?
Output: active

Input: Which outcome was assigned to "Cc1cc(N2CCN(C)CC2)nc2ccccc12" in this test?
Output: inactive

Input: Which outcome was assigned to "Cc1cc(N2CCOCC2)nc2ccccc12" in this test?
Output: active

Input: Which outcome was assigned to Cc1cc(N2CC(C)CC(C)C2)nc2ccccc12 (stereo not drawn) in this test?
Output: inactive

Input: Which outcome was assigned to "Cc1cc(N2CCCCC2)nc2c(C)cccc12" in this test?
Output: active

Input: Which outcome was assigned to "Cc1cc(N2CCCC2)nc2ccc(F)cc12" in this test?
Output: active

Input: Which outcome was assigned to Cc1cc(N2CCN(CC3CCCO3)CC2)nc2ccccc12 (stereo not drawn) in this test?
Output: inactive

Input: Which outcome was assigned to "c1ccc(-c2cc(N3CCCCC3)nc3ccccc23)cc1" in this test?
Output: active

Input: Which outcome was assigned to "Cc1cc(N2CCCCC2)nc2ccccc12" in this test?
Output: active

Input: Which outcome was assigned to "Cc1cc(N2CCC(N3CCOCC3)CC2)nc2ccccc12" in this test?
Output: inactive

Input: Which outcome was assigned to "Cc1cc(N(C)CCN(C)C)nc2ccccc12" in this test?
Output: inactive

Input: Which outcome was assigned to "FC(F)(F)c1cc(N2CCCCC2)nc2ccccc12" in this test?
Output: inactive

---

tested on: Transient receptor potential cation channel subfamily C member 4 (TRPC4beta), mouse; assay: TRPC4 channel inhibitors, SAR follow-up, cell-based, HEK293 TRPC4beta/mu-opioid, Fluo-4 calcium flux, single concentration (AID 492988); conditions: DAMGO-evoked Fluo4 calcium flux, at 10 µM, stronger effect = higher value
Inconclusive results are not listed.
Think of 70% as a floor: if inhibition stands on it or above, it is t; beneath it, f.

Input: Please tell me: is the molecule "Cc1ccnc(N2CCCCC2)n1" at or over 70% in terms of inhibition?
Output: f

Input: Please tell me: is the molecule "Cc1ccnc(N2CCCC2)c1" at or over 70% in terms of inhibition?
Output: f

Input: Please tell me: is the molecule "Cc1ccnc(N2CCCC2)n1" at or over 70% in terms of inhibition?
Output: f

Input: Please tell me: is the molecule "CCc1ccc2nc(N3CCCC3)cc(C)c2c1" at or over 70% in terms of inhibition?
Output: t

Input: Please tell me: is the molecule "Cc1cc(N2CCN(c3ncccn3)CC2)nc2ccccc12" at or over 70% in terms of inhibition?
Output: f

Input: Please tell me: is the molecule "FC(F)(F)c1cc(N2CCCC2)nc2ccccc12" at or over 70% in terms of inhibition?
Output: f

Input: Please tell me: is the molecule "Cc1cc(N2CCC[C@@H]2C)nc2ccccc12" at or over 70% in terms of inhibition?
Output: t

Input: Please tell me: is the molecule "Cc1cc(N2CCC(C)CC2)nc2ccccc12" at or over 70% in terms of inhibition?
Output: t

Input: Please tell me: is the molecule "c1ccc(-c2cc(N3CCCC3)nc3ccccc23)cc1" at or over 70% in terms of inhibition?
Output: t

Input: Please tell me: is the molecule "Cc1cc(N2CCN(c3ccncc3)CC2)nc2ccccc12" at or over 70% in terms of inhibition?
Output: f

Input: Please tell me: is the molecule "Cc1cc(N2CCCC2)nc2ccccc12" at or over 70% in terms of inhibition?
Output: t

Input: Please tell me: is the molecule "Cc1cc(N2CCN(c3ccccc3C#N)CC2)nc2ccccc12" at or over 70% in terms of inhibition?
Output: f
